Assay: cAMP Responsive Elements (CRE) small molecule antagonists, cell-based qHTS assay: qHTS cell viability counter screen (AID 2060913); further: potency means the concentration at half of the fitted maximal effect; nearly all actives have a fitted effect of over 40% in size
Settings: CRE-bla HEK293T viability, CellTiter-Glo luminescence, 5 h; series mostly up to 92.4 µM
Source text: U.S. Tox21 Program National Center for Advancing Translational Sciences [NCATS] Division of Preclinical Innovation [DPI] U.S. Environmental Protection Agency [EPA] National Institutes of Environmental Health Sciences [NIEHS] National Toxicology Program [NTP] U.S. Food and Drug Administration [FDA] […] The activation of the report gene under culture conditions can be detected by fluorescence intensity. […]
Inconclusive results are not listed. The source made the active and inactive calls. The call rests on the fitted dose curve; in most records, active means well fitted cell-killing curve with a large enough effect in the repeat runs; inconclusive means weak or mixed curves, or effect the other way; inactive means flat fitted curve, though single readings scatter.
The entries below are paired with their reported Potency.

[
  {
    "Molecule": "O=C(Nc1ccc(Cl)cc1)Nc1ccc(Cl)c(C(F)(F)F)c1",
    "Potency": "26.6 µM (active)"
  },
  {
    "Molecule": "CCCCCCCCCCCC(=O)NCCCN(C)C",
    "Potency": "61.1 µM (active)"
  },
  {
    "Molecule": "C=C1C(CCl)(CCl)C2(Cl)C(Cl)C(Cl)C1(Cl)C2(Cl)Cl (centres undefined)",
    "Potency": "60.4 µM (active)"
  },
  {
    "Molecule": "Oc1cc(Cl)cc(Cl)c1Cl",
    "Potency": "55.8 µM (active)"
  },
  {
    "Molecule": "CN(C[C@@H](CC[N+]12CCC(C3CCCCC3)(CC1)CC2)c1ccc(Cl)c(Cl)c1)C(=O)c1cc(C(F)(F)F)cc(C(F)(F)F)c1",
    "Potency": "54.5 µM (active)"
  },
  {
    "Molecule": "CCCCCCCCCCn1cc[n+](CCCCCCCCCC)c1C",
    "Potency": "24.4 µM (active)"
  },
  {
    "Molecule": "CCN(CC)c1ccc(C(=C2C=CC(=[N+](CC)CC)C=C2)c2ccc(S(=O)(=O)O)cc2S(=O)(=O)[O-])cc1",
    "Potency": "27.3 µM (active)"
  },
  {
    "Molecule": "CCN=C1C=CC(=C(c2ccc(N(CC)CC)cc2)c2ccc(N(CC)CC)cc2)c2ccccc21",
    "Potency": "48.3 µM (active)"
  },
  {
    "Molecule": "Oc1ccc(C2(c3ccc(O)c(C4CCCCC4)c3)CCCCC2)cc1C1CCCCC1",
    "Potency": "43.3 µM (active)"
  },
  {
    "Molecule": "CC(C)c1cccc(C(C)C)c1N1C(=O)c2ccc(O)cc2C1=O",
    "Potency": "61.1 µM (active)"
  },
  {
    "Molecule": "C=CC(=O)OCC(CO)(COCC(COC(=O)C=C)(COC(=O)C=C)COC(=O)C=C)COC(=O)C=C",
    "Potency": "30.3 µM (active)"
  },
  {
    "Molecule": "CC=O",
    "Potency": "63.9 µM (active)"
  },
  {
    "Molecule": "CC(C)(C)NC(=O)[C@@H]1C[C@@H]2CCCC[C@@H]2CN1C[C@@H](O)[C@H](Cc1ccccc1)NC(=O)[C@H](CC(N)=O)NC(=O)c1ccc2ccccc2n1",
    "Potency": "61.9 µM (active)"
  },
  {
    "Molecule": "CCCCCCCC[P+](CCCCCCCC)(CCCCCCCC)CCCCCCCC",
    "Potency": "17.1 µM (active)"
  },
  {
    "Molecule": "C[C@H]1O[C@@H](O[C@H]2[C@@H](O)C[C@H](O[C@H]3[C@@H](O)C[C@H](O[C@H]4CC[C@@]5(C)[C@H](CC[C@@H]6[C@@H]5C[C@@H](O)[C@]5(C)[C@@H](C7=CC(=O)OC7)CC[C@]65O)C4)O[C@@H]3C)O[C@@H]2C)C[C@H](O)[C@@H]1O",
    "Potency": "0.0632 µM (active)"
  },
  {
    "Molecule": "CCOc1nc2cccc(C(=O)OC(C)OC(=O)OC3CCCCC3)c2n1Cc1ccc(-c2ccccc2-c2nn[nH]n2)cc1 (centres undefined)",
    "Potency": "48.5 µM (active)"
  },
  {
    "Molecule": "On1ccccc1=S",
    "Potency": "9.59 µM (active)"
  },
  {
    "Molecule": "Cc1cc(O)c(C(C)(C)C)cc1Sc1cc(C(C)(C)C)c(O)cc1C",
    "Potency": "21.6 µM (active)"
  },
  {
    "Molecule": "CCCCCN=C(N)N/N=C/c1c[nH]c2ccc(OC)cc12",
    "Potency": "29.8 µM (active)"
  }
]

These measurements were taken from PubChem BioAssay (Tox21).
